Field: solubility kinetic. Provide a value for each of the molecules that follow.
PROTOCOL: Kinetic solubility of compound by measuring concentration at pH 7.4 in saturated PBS buffer by UV LCMS/MS using calibration curves. The assay has been performed by Enamine biological services, Bienta Ltd.The protocol is publicly available: dx.doi.org/10.17504/protocols.io.j8nlk8y41l5r/v1
Type: physicochemical
CONDITION_PARAMETERS: PBS buffer
Numeric answer only, unit µM assumed.

Q: Look up solubility kinetic: "CCNC(=O)c1cc2c(N[C@@H](c3ccc4c(c3)S(=O)(=O)CCO4)C(C)C)ncnc2[nH]1"
Ans: 328

Q: Look up solubility kinetic: "CCNC(=O)c1cc2c(N[C@H](c3ccc4c(c3)S(=O)(=O)CCC4)C(C)C)ncnc2[nH]1"
Ans: 337

Q: Look up solubility kinetic: "COc1ccc([C@@H](Cc2nnn[nH]2)NC(=O)c2ncnc3[nH]ccc23)cc1"
Ans: 395

Q: Look up solubility kinetic: "CNC(=O)c1cc2c(N[C@@H](c3ccc4c(c3)NC(=O)CO4)C(C)C)ncnc2[nH]1"
Ans: 372

Q: Look up solubility kinetic: "CC(C)[C@H](Nc1ncnc2[nH]c(C(=O)N[C@@H]3CCN(C)C3)cc12)c1ccc2c(c1)S(=O)(=O)CCC2"
Ans: 366
